Where do these numbers come from? They come from ChEMBL document CHEMBL1649516.

Tested on: Helicobacter pylori
Assay: Antibacterial activity against HefC-deficient Helicobacter pylori ARHp80 by CLSI M100-S13 method
Assay type: functional
Catalogue of molecules with associated MIC
Expressed in µg/mL, but write only the number.

> print(dat)
                                   molecule  resultnumber
1  Cn1cc([S+](C)[O-])cc1-c1c2c(=O)n(C)c(=O)n(CC3CC3)c2nn1Cc1ccnc2ccc(Cl)cc12 (configuration not stated)          0.25
2  Cn1cc(C#N)cc1-c1c2c(=O)n(C)c(=O)n(CC3CC3)c2nn1Cc1ccnc2ccc(Cl)cc12          0.25
3  C#CCn1c(=O)c2c(-c3cncn3C)n(Cc3ccnc4ccc(Cl)cc34)nc2n(CC2CC2)c1=O          0.25

Exercise: Name the recorded MIC for C#CCn1c(=O)c2c(-c3cc(C#N)cn3C)n(Cc3cc(C#N)nc4ccc(Cl)cc34)nc2n(CC2CC2)c1=O .
Key: 0.5

Exercise: Fill in: MIC of CC(C)Cn1c(=O)n(C)c(=O)c2c(-c3ccncc3)n(Cc3cccc4ccccc34)nc21 is ___
Key: 1

Exercise: What does the data say about its MIC? Entry: CN(C)[C@@H]1C(O)=C(C(N)=O)C(=O)[C@@]2(O)C(O)=C3C(=O)c4c(O)cccc4[C@@](C)(O)[C@H]3C[C@@H]12
Key: 0.015

Exercise: Which MIC is listed for CONC(=O)c1cc(-c2c3c(=O)n(C)c(=O)n(CC4CC4)c3nn2Cc2c[nH]c3ccc(C)cc23)n(C)c1 ?
Key: 0.25

====

Target: Glutamate racemase (Helicobacter pylori (strain ATCC 700392 / 26695) (Campylobacterpylori)) (UniProt P56068)
Sequence (P56068 whole entry): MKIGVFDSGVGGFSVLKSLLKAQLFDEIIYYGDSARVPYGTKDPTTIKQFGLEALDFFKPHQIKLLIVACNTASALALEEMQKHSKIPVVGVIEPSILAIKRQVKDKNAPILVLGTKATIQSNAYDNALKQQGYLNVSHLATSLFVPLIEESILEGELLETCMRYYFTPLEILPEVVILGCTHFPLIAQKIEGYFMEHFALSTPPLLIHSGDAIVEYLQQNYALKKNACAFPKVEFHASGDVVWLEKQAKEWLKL
Experiment: Inhibition of MurI in flaA mutant Helicobacter pylori Hp80.2 overexpressing MurI gene assessed as microbial growth inhibition by CLSI M100-S13 method
Listed below: MIC values for each entry.

Exercise: So what does the record say about MIC for CC(C)Cn1c(=O)n(C)c(=O)c2c(-c3ccncc3)n(Cc3cccc4ccccc34)nc21 ?
Key: 8 mg/L

Exercise: So what's the measured MIC for this one? Cn1cc(C#N)cc1-c1c2c(=O)n(C)c(=O)n(CC3CC3)c2nn1Cc1ccnc2ccc(Cl)cc12
Key: 4 mg/L

Exercise: Name the reported MIC value associated with the compound CN(C)[C@@H]1C(O)=C(C(N)=O)C(=O)[C@@]2(O)C(O)=C3C(=O)c4c(O)cccc4[C@@](C)(O)[C@H]3C[C@@H]12 [TETRACYCLINE]
Key: 0.13 mg/L

Exercise: Item under review: C#CCn1c(=O)c2c(-c3cc(C#N)cn3C)n(Cc3cc(C#N)nc4ccc(Cl)cc34)nc2n(CC2CC2)c1=O . Reported MIC?
Key: > 64 mg/L

Exercise: What measured MIC goes with Cn1cc([S+](C)[O-])cc1-c1c2c(=O)n(C)c(=O)n(CC3CC3)c2nn1Cc1ccnc2ccc(Cl)cc12 (stereo unspecified) ?
Key: 16 mg/L

Exercise: Returns the measured MIC for the input compound. Input: C#CCn1c(=O)c2c(-c3cncn3C)n(Cc3ccnc4ccc(Cl)cc34)nc2n(CC2CC2)c1=O
Key: 8 mg/L
